Target: Protein deacetylase HDAC6 (Homo sapiens)
Assay: Inhibition of HDAC6 in human HeLa cells assessed as reduction in K40 hyperacetylation of alpha-tubulin incubated for 6 hrs by immunofluorescence assay
Assay type: cell-based
Metric Name: pIC50
pIC50 is a log-scale quantity: -log10 of the concentration expressed in molar.

Cpd Smiles	pIC50
Cn1cccc1C(=O)N1CCn2cc(C(=O)NO)cc2C1	7.16
O=C(NO)c1cc2n(c1)CCN(C(=O)C1CCCCC1)C2	6.14
Cn1c(C(=O)N2CCn3nc(C(=O)NO)cc3C2)cc2ccccc21	5.46

According to the records, this compound Cn1cccc1C(=O)N1CCn2nc(C(=O)NO)cc2C1 displays pIC50 of 5.66

According to the records, this compound O=C(NO)c1cn2c(n1)CN(C(=O)c1ccc(-c3ccccc3)cc1)CC2 displays pIC50 of 5.68

According to the records, this compound COc1ccc(C(=O)N2CCn3cc(C(=O)NO)cc3C2)cc1 displays pIC50 of 7.00

According to the records, this compound Cn1c(C(=O)N2CCn3cc(C(=O)NO)cc3C2)cc(Cl)c1Cl displays pIC50 of 6.82

According to the records, this compound Cn1ccc2cc(C(=O)N3CCn4cc(C(=O)NO)cc4C3)ccc21 displays pIC50 of 6.85

---

Biological target: Protein deacetylase HDAC6 (Homo sapiens, UniProt Q9UBN7)
Sequence (Q9UBN7 whole entry): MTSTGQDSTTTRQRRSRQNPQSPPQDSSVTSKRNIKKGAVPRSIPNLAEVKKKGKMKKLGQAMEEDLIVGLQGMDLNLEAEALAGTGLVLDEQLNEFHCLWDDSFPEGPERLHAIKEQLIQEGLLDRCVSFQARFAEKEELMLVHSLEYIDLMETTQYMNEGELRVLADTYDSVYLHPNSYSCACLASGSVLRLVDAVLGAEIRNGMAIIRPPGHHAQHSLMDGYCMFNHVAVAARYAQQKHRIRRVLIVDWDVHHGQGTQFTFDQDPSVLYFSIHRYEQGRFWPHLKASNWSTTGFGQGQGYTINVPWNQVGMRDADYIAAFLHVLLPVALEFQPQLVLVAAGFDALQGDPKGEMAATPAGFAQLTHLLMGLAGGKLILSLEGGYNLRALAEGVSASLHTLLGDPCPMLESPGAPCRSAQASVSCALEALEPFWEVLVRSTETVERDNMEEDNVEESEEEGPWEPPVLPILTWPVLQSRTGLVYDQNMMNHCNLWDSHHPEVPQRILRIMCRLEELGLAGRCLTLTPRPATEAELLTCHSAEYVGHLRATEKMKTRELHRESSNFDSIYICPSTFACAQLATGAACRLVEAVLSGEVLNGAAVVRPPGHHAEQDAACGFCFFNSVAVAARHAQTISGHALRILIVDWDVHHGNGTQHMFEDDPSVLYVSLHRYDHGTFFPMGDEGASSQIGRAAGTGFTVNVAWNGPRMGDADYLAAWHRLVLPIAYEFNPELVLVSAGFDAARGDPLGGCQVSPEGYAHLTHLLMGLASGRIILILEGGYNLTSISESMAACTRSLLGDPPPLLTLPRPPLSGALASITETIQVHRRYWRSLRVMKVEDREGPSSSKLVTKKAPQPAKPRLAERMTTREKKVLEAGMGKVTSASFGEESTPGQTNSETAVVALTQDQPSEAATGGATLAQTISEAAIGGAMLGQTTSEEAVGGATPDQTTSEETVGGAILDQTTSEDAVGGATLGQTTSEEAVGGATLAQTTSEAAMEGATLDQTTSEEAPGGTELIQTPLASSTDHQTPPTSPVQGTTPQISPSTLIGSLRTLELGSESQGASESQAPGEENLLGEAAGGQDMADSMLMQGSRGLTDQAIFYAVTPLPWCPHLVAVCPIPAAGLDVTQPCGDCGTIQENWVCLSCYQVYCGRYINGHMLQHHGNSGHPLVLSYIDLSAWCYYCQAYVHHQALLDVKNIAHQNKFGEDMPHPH
Test: Inhibition of recombinant N-GST-tagged HDAC6 (unknown origin) assessed as reduction in deacetylation of Ac-Arg-Gly-Lys(Ac)-AMC substrate by fluorescence assay
pIC50: −log10 of the molar value.
pIC50 below 7 gives criterion not met; pIC50 at or above it gives criterion met.

A selection of reference data follows.
Cpd Smiles	Classification
O=C(NO)c1cc2n(c1)CCN(C(=O)c1cc3ccccc3[nH]1)C2	criterion not met
Cn1cc(C(=O)N2CCn3cc(C(=O)NO)cc3C2)c2ccccc21	criterion not met
COc1ccc(C(=O)N2CCn3nc(C(=O)NO)cc3C2)cc1	criterion not met

Then there is this compound:
INPUT: Does Cn1c(C(=O)N2CCn3cc(C(=O)NO)cc3C2)cc(Cl)c1Cl have a reported pIC50 of at least 7?
OUTPUT: criterion met

---

Target: Histone deacetylase 5 (Homo sapiens)
Sequence (Q9UQL6 whole entry): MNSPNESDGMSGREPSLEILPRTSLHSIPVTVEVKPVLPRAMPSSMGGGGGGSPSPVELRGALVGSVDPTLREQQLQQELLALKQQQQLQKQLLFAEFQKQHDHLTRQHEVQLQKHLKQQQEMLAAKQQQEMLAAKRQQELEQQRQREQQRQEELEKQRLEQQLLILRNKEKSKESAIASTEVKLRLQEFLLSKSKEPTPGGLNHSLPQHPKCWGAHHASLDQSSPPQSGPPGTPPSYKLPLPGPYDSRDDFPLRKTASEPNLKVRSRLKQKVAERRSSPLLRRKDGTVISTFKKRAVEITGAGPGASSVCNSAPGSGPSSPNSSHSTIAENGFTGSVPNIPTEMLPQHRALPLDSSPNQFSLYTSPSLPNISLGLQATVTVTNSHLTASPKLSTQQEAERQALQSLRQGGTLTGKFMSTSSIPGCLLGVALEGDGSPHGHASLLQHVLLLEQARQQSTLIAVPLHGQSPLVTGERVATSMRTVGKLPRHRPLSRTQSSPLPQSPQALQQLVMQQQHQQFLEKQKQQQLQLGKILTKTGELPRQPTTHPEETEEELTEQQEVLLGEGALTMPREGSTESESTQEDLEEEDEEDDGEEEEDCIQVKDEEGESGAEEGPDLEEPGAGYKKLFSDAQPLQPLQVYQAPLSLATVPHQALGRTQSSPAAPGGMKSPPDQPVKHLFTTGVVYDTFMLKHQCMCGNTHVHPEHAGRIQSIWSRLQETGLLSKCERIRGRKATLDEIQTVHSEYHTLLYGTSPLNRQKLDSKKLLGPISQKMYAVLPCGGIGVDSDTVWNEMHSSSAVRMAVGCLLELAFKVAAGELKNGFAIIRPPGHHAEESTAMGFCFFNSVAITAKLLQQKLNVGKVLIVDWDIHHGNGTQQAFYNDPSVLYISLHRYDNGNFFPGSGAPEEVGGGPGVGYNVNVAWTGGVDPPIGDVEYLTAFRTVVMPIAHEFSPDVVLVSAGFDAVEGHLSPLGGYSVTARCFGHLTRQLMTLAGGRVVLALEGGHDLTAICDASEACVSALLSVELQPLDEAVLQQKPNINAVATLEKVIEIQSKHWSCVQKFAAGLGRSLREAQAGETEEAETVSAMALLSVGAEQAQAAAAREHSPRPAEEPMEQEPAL
Metric Name: IC50 (µM)
The reply should contain only the number, in µM.

Reading of IC50 for Cn1cccc1C(=O)N1CCn2cc(C(=O)NO)cc2C1 with Histone deacetylase 5 (Homo sapiens): 29

---

System: HeLa
Experiment: Selectivity index, ratio of IC50 for HDAC1/HDAC2 in human HeLa cells nuclear extracts to IC50 for recombinant N-GST-tagged HDAC6 (unknown origin)
Type: cell-based
Metric Name: Ratio IC50
Enter a number only.

Consider the following illustrative entries.
Cpd Smiles	Measurement Target	Ratio IC50
O=C(NO)c1cc2n(c1)CCN(C(=O)c1cc3ccccc3[nH]1)C2	HeLa	24
O=C(NO)c1cn2c(n1)CN(C(=O)c1cc3ccccc3s1)CC2	HeLa	52
Cn1cccc1C(=O)N1CCn2nc(C(=O)NO)cc2C1	HeLa	220

Let us examine a further case.
According to the records, this compound O=C(NO)c1cc2n(c1)CCN(C(=O)c1cccs1)C2 displays Ratio IC50 of 150

---

Assay: Permeability in human Caco2 cells at pH 7.4
Assay type: ADME, cell-based
Details: Caco-2, pH 7.4, read-out: permeability
Metric Name: Papp (×10⁻⁶ cm/s)
The reply should contain only the number, in ×10⁻⁶ cm/s.

According to the records, this molecule Cn1cccc1C(=O)N1CCn2cc(C(=O)NO)cc2C1 displays Papp of 4.2

---

Target: Protein deacetylase HDAC6 (Homo sapiens, UniProt Q9UBN7)
Experiment: Inhibition of recombinant N-GST-tagged HDAC6 (unknown origin) assessed as reduction in deacetylation of Ac-Arg-Gly-Lys(Ac)-AMC substrate by fluorescence assay
Metric Name: log10(IC50) (log10 of the value in nM)
Scale: decimal log of IC50, IC50 in nM.

Consider the following illustrative entries.
Cpd Smiles	log10(IC50)
O=C(NO)c1cc2n(c1)CCN(C(=O)c1cccs1)C2	2.04
Cn1ccc2cc(C(=O)N3CCn4cc(C(=O)NO)cc4C3)ccc21	1.93
Cn1cccc1C(=O)N1CCn2cc(C(=O)NO)cc2C1	1.52
COc1ccc(C(=O)N2CCn3cc(C(=O)NO)cc3C2)cc1	1.63
O=C(NO)c1cc2n(c1)CCN(C(=O)c1ccc(-c3ccccc3)cc1)C2	1.51

According to the records, this compound O=C(NO)c1cc2n(c1)CCN(C(=O)c1cc3ccccc3s1)C2 displays log10(IC50) of 1.59

According to the records, this compound Cn1cccc1C(=O)N1CCn2cc(C(=O)NO)nc2C1 displays log10(IC50) of 2.11

According to the records, this compound O=C(NO)c1cn2c(n1)CN(C(=O)c1ccc(-c3ccccc3)cc1)CC2 displays log10(IC50) of 1.94

According to the records, this compound Cn1cccc1C(=O)N1CCn2nc(C(=O)NO)cc2C1 displays log10(IC50) of 2.54

According to the records, this compound O=C(NO)c1cc2n(c1)CCN(C(=O)C1CCCCC1)C2 displays log10(IC50) of 2.00

---

Experiment: Aqueous solubility in pH 6.8 buffer solution
Format: physicochemical
Metric Name: solubility

According to the records, this compound Cn1cccc1C(=O)N1CCn2cc(C(=O)NO)cc2C1 displays solubility of > 200 µM

---

Entries and their measured Ratio IC50 follow.
Tested on: HeLa
Assay: Selectivity index, ratio of IC50 for HDAC1/HDAC2 in human HeLa cells nuclear extracts to IC50 for recombinant N-GST-tagged HDAC6 (unknown origin)
Type: cell-based
Enter a number only.

Cpd Smiles	Obs Value
Cn1ccc2cc(C(=O)N3CCn4cc(C(=O)NO)cc4C3)ccc21	35
COc1ccc(C(=O)N2CCn3cc(C(=O)NO)cc3C2)cc1	130
O=C(NO)c1cn2c(n1)CN(C(=O)c1ccc(-c3ccccc3)cc1)CC2	70
Cn1cccc1C(=O)NCc1ccc(C(=O)NO)cc1	115
Cn1cccc1C(=O)N1CCc2cc(C(=O)NO)ccc2C1	500

Reading of Ratio IC50 for Cn1cc(C(=O)N2CCn3cc(C(=O)NO)cc3C2)c2ccccc21 with HeLa: 6.3

Reading of Ratio IC50 for O=C(NO)c1cc2n(c1)CCN(C(=O)c1ccc(-c3ccccc3)cc1)C2 with HeLa: 44

Reading of Ratio IC50 for Cn1c(C(=O)N2CCn3cc(C(=O)NO)cc3C2)cc(Cl)c1Cl with HeLa: 100

---

Tested on: HeLa
Assay: Selectivity index, ratio of IC50 for HDAC1/HDAC2 in human HeLa cells nuclear extracts to IC50 for recombinant N-GST-tagged HDAC6 (unknown origin)
Assay type: cell-based
Entries and their measured Ratio IC50 follow.
Enter a number only.

Cpd Smiles	Obs Value
O=C(NO)c1cc2n(c1)CCN(C(=O)C1CCCCC1)C2	250
Cn1c(C(=O)N2CCn3nc(C(=O)NO)cc3C2)cc2ccccc21	66

According to the records, this molecule Cn1cccc1C(=O)N1CCn2cc(C(=O)NO)nc2C1 displays Ratio IC50 of 770

According to the records, this molecule O=C(NO)c1cc2n(c1)CCN(C(=O)c1cc3ccccc3s1)C2 displays Ratio IC50 of 14

According to the records, this molecule COc1ccc(C(=O)N2CCn3nc(C(=O)NO)cc3C2)cc1 displays Ratio IC50 of 120
